meta.source: PubChem BioAssay AID686978

test name: qHTS for Inhibitors of human tyrosyl-DNA phosphodiesterase 1 (TDP1): qHTS in cells in absence of CPT; also: nearly all actives have a fitted effect of over 55% in size; also: potency is read from the fitted curve at half-maximal effect
test settings: DT40 Tdp1-/- hTDP1 cells, no CPT, ATP luminescence, 48 h
Screen size: about 420,000 compounds; about 64,000 (15%) were called active. Not shown: some 27% with an inconclusive outcome. A selection follows.

# molecule, Potency
measured = [
    ("COc1ccc(/C=C/C(=O)Nc2ccc(C34CC5CC(CC(O)(C5)C3)C4)cc2)cc1OC", "1.3 µM (active)"),
    ("COc1cncc(-c2cnc3sc(NCCc4ccccn4)nn23)c1", "13 µM (active)"),
    ("COc1ccc(NS(=O)(=O)c2cccc3nsnc23)cc1Cl", "inactive"),
    ("C=CCN1C(=O)C(Cc2cccc(Cl)c2)S/C1=N/N=C/c1ccco1 (stereo unspecified)", "inactive"),
    ("COC(=O)NNC(=O)C1CCC(C)CC1 (stereo unspecified)", "inactive"),
    ("COc1ccc2oc(=O)c(C(=O)NCc3ccccn3)cc2c1", "inactive"),
    ("Cc1ccc(C(=O)N/C(=C\\c2cccs2)C(=O)NCCc2ccccn2)cc1C", "inactive"),
    ("O=C(CCc1ccccc1Cl)Nc1ccc(S(=O)(=O)Nc2nccs2)cc1", "inactive"),
    ("O=C(O)c1ccc(CSc2nc3cccnc3n2Cc2cccc(F)c2)cc1", "inactive"),
    ("COCCN1C=C2C(=O)C(C)(OC(=O)C3CCCC3)C(=O)C=C2C=C1c1ccsc1 (stereo unspecified)", "inactive"),
    ("Cc1oc(-c2ccccc2)nc1Cn1c(SCc2cccc(C(F)(F)F)c2)nc2cccnc21", "25.9 µM (active)"),
]

---

test name: qHTS for Inhibitors of human tyrosyl-DNA phosphodiesterase 1 (TDP1): qHTS in cells in absence of CPT; also: nearly all actives have a fitted effect of over 55% in size
test settings: DT40 Tdp1-/- hTDP1 cells, no CPT, ATP luminescence, 48 h
Screen size: about 420,000 compounds; about 64,000 (15%) were called active. Not shown: some 27% with an inconclusive outcome. The call rests on the fitted dose curve; in most records, active means well fitted inhibition curve with a large enough effect; inconclusive means small, poorly fitted or top-dose-only effect; inactive means flat fitted curve, though single readings scatter. Only a sample is shown.
Outcomes: yes (1) for active, no (0) for inactive

# compound, label
rows = [
    ("Cc1cc(C(=O)NCCc2ccc(Cl)cc2)c(C)o1", "no (0)"),
    ("CC1C(=O)Nc2ccc(S(=O)(=O)N3CCN(c4ccccc4F)CC3)cc2NC1=O (stereo unspecified)", "yes (1)"),
    ("CCCN(CC(=O)Nc1ccc(OC)c(OC)c1)CC(=O)Nc1ccc(F)c(F)c1F", "no (0)"),
    ("Cc1ccc2cc(C)c(N3CCC(C)CC3)nc2c1", "no (0)"),
    ("Cc1cc(NC(=O)CC(C)C)cc(-c2nc3ncccc3o2)c1O", "no (0)"),
    ("CN(C)CCCN(Cc1cc2cc3c(cc2[nH]c1=O)OCCO3)C(=O)NC1CCCCC1", "no (0)"),
    ("CC(C)=C1C2CCC1C1C(=O)N(NC(=O)c3ccco3)C(=O)C21 (stereo unspecified)", "no (0)"),
    ("Cc1ccc(S(=O)(=O)N2CCN(S(=O)(=O)N3CCOCC3)CC2)cc1", "no (0)"),
    ("N#Cc1c(NCCO)ccc([N+](=O)[O-])c1NCCO", "no (0)"),
    ("CCOC(=O)N1CCN(S(=O)(=O)c2ccc3c(c2)C(C)C(=O)N3)CC1 (stereo unspecified)", "no (0)"),
    ("Cc1ccc2[nH]c(=O)c(COC(=O)c3ccccn3)cc2c1", "no (0)"),
]

---

test name: qHTS for Inhibitors of human tyrosyl-DNA phosphodiesterase 1 (TDP1): qHTS in cells in absence of CPT; also: nearly all actives have a fitted effect of over 55% in size; also: potency is read from the fitted curve at half-maximal effect
test settings: DT40 Tdp1-/- hTDP1 cells, no CPT, ATP luminescence, 48 h
Screen size: about 420,000 compounds; about 64,000 (15%) were called active. Inconclusive results (about 27%) are left out. Only a sample is shown.

# compound, Potency
measured = [
    ("COc1ccc(NC(=O)C2Cc3c(-c4ccc(Cl)cc4)ccnc3O2)cc1 (stereo unspecified)", "13 µM (active)"),
    ("Cc1cccc(CN2CCN(Cc3cnn(-c4ccccc4F)c3)CC2CCO)n1 (stereo unspecified)", "inactive"),
    ("COc1ccc(C(C)=O)cc1CN1C(=O)NC2(CCCCC2C)C1=O (stereo unspecified)", "inactive"),
    ("O=C(NCc1ccc2c(c1)OCO2)c1ccc2c(c1)C(=O)N(CC1CCCO1)C2=O (stereo unspecified)", "inactive"),
    ("COc1ccc(OCC(O)CNC(=O)Nc2ccc(Cl)cc2)cc1 (stereo unspecified)", "inactive"),
    ("O=C1c2cccc3c([N+](=O)[O-])ccc(c23)C(=O)N1CC1CCCO1 (stereo unspecified)", "5.8 µM (active)"),
    ("O=C(Nc1ccc(Cl)cc1)C1Cc2c(-c3ccc4c(c3)OCO4)ccnc2O1 (stereo unspecified)", "20.6 µM (active)"),
    ("O=C(COc1ccc(Cl)cc1)Nc1ccc2c(c1)OCO2", "inactive"),
    ("COc1ccc(CCNC(=O)COc2ccc3c(c2)OCO3)cc1", "inactive"),
    ("COc1ccc(CCCNC(=O)C2Cc3c(-c4cccc(C(N)=O)c4)ccnc3O2)cc1 (stereo unspecified)", "16.4 µM (active)"),
    ("O=c1c2cc3c(=O)n(CC4CCCO4)c(=O)c3cc2c(=O)n1CC1CCCO1 (stereo unspecified)", "inactive"),
]

---

test name: qHTS for Inhibitors of human tyrosyl-DNA phosphodiesterase 1 (TDP1): qHTS in cells in absence of CPT; also: nearly all actives have a fitted effect of over 55% in size
test settings: DT40 Tdp1-/- hTDP1 cells, no CPT, ATP luminescence, 48 h
Among all 420,000 compounds or so, about 64,000 (15%) were called active. Inconclusive results (about 27%) are left out. Calls follow the shape of the dose curve; as a rule, active = well fitted inhibition curve with a large enough effect; inconclusive = small, poorly fitted or top-dose-only effect; inactive = flat fitted curve, though single readings scatter. These entries were drawn from the full list.
Outcomes: active, inactive

# compound, label
measured = [
    ("O=C1N=C(N2CCOCC2)S/C1=C\\C=C/c1ccccc1", "inactive"),
    ("CC1CCc2c(c3ccccc3[nH]c2=O)O1 (stereo unspecified)", "inactive"),
    ("O=C(O)C1=C/C(=C/C=[N+]2c3cc(O)c(O[C@H]4OC(CO)[C@@H](O)[C@@H](O)[C@@H]4O)cc3C[C@@H]2C(=O)[O-])C[C@H](C(=O)O)N1 (stereo partly specified)", "inactive"),
    ("CCOc1cccc2cc(-c3cn4c(n3)sc3cc(C)ccc34)c(=O)oc12", "inactive"),
    ("CCOC(=O)N1CCN(C(=O)C[C@@H]2C[C@@]3(C(=O)OC)CCCCC=C3N(CCC3=CCCCC3)C2=O)CC1", "active"),
    ("COC(=O)c1ccc(CN2CCCC(C(=O)Nc3cccc(-n4cnnn4)c3)C2)cc1 (stereo unspecified)", "active"),
    ("CC(C)CCNC(=O)CC1C(=O)N(Cc2ccccc2)C(C)c2nc3ccccc3n21 (stereo unspecified)", "inactive"),
    ("Cc1c(Cl)cccc1NC(=O)CCC(=O)N/N=C/c1ccco1", "inactive"),
    ("Cc1cc(C(=O)NCCCc2ccccc2)no1", "inactive"),
    ("CCOC(=O)[C@]12CCCC=C1N(CCC1=CCCCC1)C(=O)[C@H](CC(=O)N1CCCCC1)C2", "active"),
    ("CCOC(=O)N1CCN(C(=O)COc2ccc(Br)cc2)CC1", "inactive"),
    ("CCOC(=O)c1cccc(NC(=O)C2CCCN(S(=O)(=O)c3cnc[nH]3)C2)c1 (stereo unspecified)", "inactive"),
    ("CC1CCN(C2=NC(=O)/C(=C/c3cn[nH]c3-c3ccccc3)S2)CC1", "active"),
    ("O=C(COC(=O)c1ccccn1)Nc1cccc2ccccc12", "inactive"),
    ("CCc1nc2cc(C(=O)NCC3CCS(=O)(=O)C3)cc(NC(=O)c3ccccc3OC)c2n1C (stereo unspecified)", "inactive"),
    ("C/C(=N\\NC(=O)COc1c(C)cccc1C)c1cccs1", "inactive"),
    ("O=C(Nc1ccc(F)cc1)C1CCCN(S(=O)(=O)c2ccc(-n3cnnn3)cc2)C1 (stereo unspecified)", "inactive"),
    ("Cc1ccc(N=C2NC(=O)c3cccc([N+](=O)[O-])c32)cc1", "inactive"),
    ("C/C(=N\\NC(=O)CNc1cccc2ccccc12)c1ccc(Br)s1", "active"),
    ("Cc1ccc(-c2cn3c(n2)sc2cc(C(=O)NCc4cccs4)ccc23)c(C)c1", "active"),
    ("C/C(Cc1ccccc1)=N\\NC(=O)CNC(=O)c1cccc(Br)c1", "inactive"),
]

---

test name: qHTS for Inhibitors of human tyrosyl-DNA phosphodiesterase 1 (TDP1): qHTS in cells in absence of CPT; also: nearly all actives have a fitted effect of over 55% in size
test settings: DT40 Tdp1-/- hTDP1 cells, no CPT, ATP luminescence, 48 h
Hit rate of the full screen: of about 420,000 compounds, about 64,000 (15%) were called active. Not shown: some 27% with an inconclusive outcome. Calls follow the shape of the dose curve; as a rule, active = well fitted inhibition curve with a large enough effect; inconclusive = small, poorly fitted or top-dose-only effect; inactive = flat fitted curve, though single readings scatter. The list is a sample of the results.
Outcomes: True (active), False (inactive)

# compound, label
measured = [
    ("CC(=O)OC(C)C[N+](C)(C)C (stereo unspecified)", "False"),
    ("O=C(Oc1ccc(F)cc1)N1CCOCC1", "False"),
    ("COc1cc(-n2c(C)nc3cc(C(=O)NCc4ccco4)ccc32)cc(OC)c1OC", "False"),
    ("C/C(=N/NC(=O)CSc1ccccn1)c1ccc([N+](=O)[O-])cc1", "False"),
    ("O=C(O)CC(SCC(=O)Nc1ccc(Br)cc1)C(=O)O (stereo unspecified)", "False"),
    ("O=C(CCn1nnc2ccccc21)OCC(=O)c1ccc([N+](=O)[O-])cc1", "False"),
    ("CCn1c(CNC(=O)c2cc(OC)c(OC)c(OC)c2)cc2cc(C)ccc21", "True"),
    ("CN(C(=O)COC(=O)Cc1ccccc1[N+](=O)[O-])C1CCS(=O)(=O)C1 (stereo unspecified)", "False"),
    ("CC(=NNC(=O)c1ccncc1)c1ccc(Cl)c(Cl)c1", "False"),
    ("Cc1onc(-c2c(F)cccc2Cl)c1C(=O)N(C)CC(=O)Nc1cccc(F)c1", "False"),
    ("C/C(=N\\NC(=O)OC(C)(C)C)c1ccc[nH]1", "False"),
]
